- Experimental target: β-secretase (BACE) (Homo sapiens)
- Construct: purchased Panvera
- Sequence (P56817 46-501): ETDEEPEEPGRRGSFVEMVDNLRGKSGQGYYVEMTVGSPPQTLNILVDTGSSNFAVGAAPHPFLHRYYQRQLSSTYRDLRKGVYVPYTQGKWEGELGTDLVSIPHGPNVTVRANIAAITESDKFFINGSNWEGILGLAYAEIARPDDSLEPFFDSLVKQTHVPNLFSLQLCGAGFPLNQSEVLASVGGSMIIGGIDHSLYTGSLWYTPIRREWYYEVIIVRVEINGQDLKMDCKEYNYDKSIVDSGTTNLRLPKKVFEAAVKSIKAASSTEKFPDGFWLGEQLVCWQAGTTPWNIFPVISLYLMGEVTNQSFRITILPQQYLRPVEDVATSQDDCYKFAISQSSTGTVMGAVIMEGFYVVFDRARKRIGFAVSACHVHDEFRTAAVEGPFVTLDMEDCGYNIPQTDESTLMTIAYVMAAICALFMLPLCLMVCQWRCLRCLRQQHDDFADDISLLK
- Test summary: in vitro BACE Assay, Ki (Example 14)
- Assay type: biochemical
Reported property: Ki (nM)

// known answers, use as guide
- CC(C)[C@@H]1CCC(=O)N(CCCO)CCc2cccc(c2)Oc2ccc3c(c2)CN1C(N)=N3: 44
- NC1=Nc2cc(F)c3cc2CN1[C@H](C1CCCCC1)CCC(=O)N(C1CCCCC1)CCc1cccc(c1)O3: 7.6

a. NC1=Nc2ccc3cc2CN1CCCCC(=O)N(C1CCCCC1)CCCc1cccc(c1)O3
b. NC1=Nc2ccc3cc2CN1[C@@H](C1CCCCC1)CCCN(C1CCCCC1)CCCc1cccc(c1)O3
Among a and b , whose measured Ki is the smaller figure? // respond with label for picked entry
a
